Biological target: T1, Sso7d (Sulfolobus solfataricus, UniProt P39476 2-64)
T1 sequence: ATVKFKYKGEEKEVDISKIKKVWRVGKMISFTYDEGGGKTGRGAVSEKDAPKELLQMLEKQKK
Experiment: fluorescence anisotropy; 10 mM MgCl2, 1 mM ATP; T4 DNA ligase reaction buffer: 50 mM Tris-HCl pH 7.5 (25°C), 1 mM ATP, 10 mM MgCl2; 750 pM-4 nM DNA; anisotropy temperature not stated
Conditions: protein: recombinant; tags: N-terminal His6; label: 3'-FAM on one strand; blunt
measurement.name: pKd
Note: pKd values are expressed as the negative base-10 logarithm of concentration in M.

**Query** Dear colleague, I am looking for the recorded pKd of the following binder: Anisotropy 24mer dsDNA (dsDNA) DNA 1: GATCGTCCTTGGTGATCATGCATC DNA 2: GATGCATGATCACCAAGGACGATC
**Result** 6.37
